The measurements presented in this section are drawn from ChEMBL document CHEMBL3400040.

# ASSAY PROTOCOL: Cytotoxicity against human HepG2 cells after 72 hrs by MTT assay
# Assay type: cell-based
# MEASUREMENT CONDITIONS: HepG2 cells
Below, each entry is listed with its recorded CC50 at 72 h.
# output: bare number, implied unit µM

Below, 3 compounds whose answers are already recorded.
line_notation=Cc1ccc(-c2cc(=O)[nH]c3c([N+](=O)[O-])cccc23)cc1 measurement_label="CC50 at 72 h" numeric_value=31
line_notation=O=c1cc(-c2ccc(Cl)cc2)c2cccc([N+](=O)[O-])c2[nH]1 measurement_label="CC50 at 72 h" numeric_value=16.1
line_notation=O=c1cc(-c2cccc(C(F)(F)F)c2)c2cccc([N+](=O)[O-])c2[nH]1 measurement_label="CC50 at 72 h" numeric_value=14.7

# input for lookup
## Input Requested read-out: CC50 at 72 h. Entry: "O=c1cc(C#CCO)c2cccc([N+](=O)[O-])c2[nH]1"
## Output 2.1

###

# Tested on: THP-1
# ASSAY PROTOCOL: Cytotoxicity against human THP1 cells after 72 hrs by MTT assay
# Type: cell-based
# MEASUREMENT CONDITIONS: THP-1, 72 h
Below, each entry is listed with its recorded pIC50.
Keep it numeric: pIC50 is minus log10 of the concentration in mol/L.

line_notation=CCCCCCCCCCCCCCCCOP(=O)([O-])OCC[N+](C)(C)C measurement_label=pIC50 numeric_value=4.39

# input for lookup
## Input # query: pIC50 | item "C[C@@H]1[C@H](O)[C@@H](C)/C=C/C=C/C=C/C=C/C=C/C=C/C=C/[C@H](O[C@@H]2O[C@H](C)[C@@H](O)[C@H](N)[C@@H]2O)C[C@@H]2O[C@](O)(C[C@@H](O)C[C@@H](O)[C@H](O)CC[C@@H](O)C[C@@H](O)CC(=O)O[C@H]1C)C[C@H](O)[C@H]2C(=O)O" | system: THP-1
## Output 5.08

###

# Tested on: Leishmania donovani
# ASSAY PROTOCOL: Antileishmanial activity against promastigote stage of Leishmania donovani MHOM/IN/00/DEVI assessed as inhibition of metabolic activity after 72 hrs by MTT assay
# Type: functional, organism-based
# MEASUREMENT CONDITIONS: Leishmania donovani, MHOM/IN/00/DEVI, 72 h; read-out: IC50
MEASUREMENT LABEL: pIC50
Keep it numeric: pIC50 is minus log10 of the concentration in mol/L.

Below, 5 compounds whose answers are already recorded.
line_notation=O=c1cc(Br)c2cccc([N+](=O)[O-])c2[nH]1 measurement_label=pIC50 numeric_value=5.02
line_notation=COc1ccc(-c2cc(=O)[nH]c3c([N+](=O)[O-])cccc23)cc1 measurement_label=pIC50 numeric_value=4.55
line_notation=O=c1cc(-c2ccc(Cl)cc2)c2cccc([N+](=O)[O-])c2[nH]1 measurement_label=pIC50 numeric_value=5.38
line_notation=O=c1cc(C#CCO)c2cccc([N+](=O)[O-])c2[nH]1 measurement_label=pIC50 numeric_value=5.62
line_notation=O=c1cc(C#Cc2ccccc2)c2cccc([N+](=O)[O-])c2[nH]1 measurement_label=pIC50 numeric_value=5.57

## Input Requested read-out: pIC50. Entry: "O=c1cc(C#CCOc2ccccc2)c2cccc([N+](=O)[O-])c2[nH]1"
## Output 5.85

## Input Requested read-out: pIC50. Entry: "O=c1cc(-c2ccc(C(F)(F)F)cc2)c2cccc([N+](=O)[O-])c2[nH]1"
## Output 5.21
